System: TTR
run-description: TTR editing in primary human hepatocytes transfected with Spy Cas9 protein and sgRNAs (Table 12)
Assay type: cell-based
stated-conditions: primary human hepatocytes transfected with Spy Cas9 protein (RNP) and sgRNAs
Strand notation (5' to 3'): a small letter for the sugar, then the base; units joined by * are phosphorothioate-linked, units joined directly phosphodiester-linked; [ ] holds rarer units or linkages, { } end groups; capitals alone tell only the bases. m = 2'-O-methyl; r = 2'-OH (RNA)
Each entry below carries its recorded Avg % Edit.

molecule	Avg % Edit [%]
G000495: TTR sgRNA modified sequence, Human, SEQ ID No. 102; guide sequence of CR003343 (nucleic acid) guide: mC*mA*mG*rArGrGrArCrArCrUrUrGrGrArUrUrCrArCrGrUrUrUrUrArGrAmGmCmUmAmGmAmAmAmUmAmGmCrArArGrUrUrArArArArUrArArGrGrCrUrArGrUrCrCrGrUrUrArUrCrAmAmCmUmUmGmAmAmAmAmAmGmUmGmGmCmAmCmCmGmAmGmUmCmGmGmUmGmCmU*mU*mU*mU	50.80
G000499: TTR sgRNA modified sequence, Human, SEQ ID No. 106; guide sequence of CR005303 (nucleic acid) guide: mU*mG*mA*rArUrCrCrArArGrUrGrUrCrCrUrCrUrGrArGrUrUrUrUrArGrAmGmCmUmAmGmAmAmAmUmAmGmCrArArGrUrUrArArArArUrArArGrGrCrUrArGrUrCrCrGrUrUrArUrCrAmAmCmUmUmGmAmAmAmAmAmGmUmGmGmCmAmCmCmGmAmGmUmCmGmGmUmGmCmU*mU*mU*mU	66.40

The measurements presented in this section are drawn from patent US11795460B2.
